Assay: In vitro enzyme assay to detect hydrolysis of chlorophenol red-beta-D-[…] directly proportional to the number of Toxoplasma stably expressing beta-galactosidase
Format: functional, organism-based, Toxoplasma gondii
Design: scale not given: in the data most compounds retested in dose-response had high values
Details: 10 µM
In all, about 85,000 compounds went through this assay and about 440 (0.52%) showed an effect of 50% or more. The sample holds strong results, similar compounds and a random draw of the others, so the mix is not that of the screen.
As shown below, each of these molecules has a reported Percent Effect value.

{"columns": ["molecule", "unit", "Percent Effect"],
 "data": [
  ["CN(Cc1cc2cc(F)ccc2[nH]1)c1cc(C2CCCNC2)ncn1 (stereo not drawn)", "%", 38.81],
  ["OC[C@@H]1CCCN1c1nccc(-c2c[nH]nc2-c2ccncc2)n1", "%", -24.25],
  ["CCN(Cc1ccncc1)c1cc(C2CCNCC2)nc(C)n1", "%", 30.82]
]}

====

As shown below, each of these compounds has a reported Percent Effect value.
Assay: In vitro enzyme assay to detect hydrolysis of chlorophenol red-beta-D-[…] directly proportional to the number of Toxoplasma stably expressing beta-galactosidase
Format: functional, organism-based, Toxoplasma gondii
Parameters: scale not given: in the data most compounds retested in dose-response had high values
Details: 10 µM
The campaign covered roughly 85,000 compounds. About 440 (0.52%) showed an effect of 50% or more. For the sample, strong results were picked, then their nearest neighbours and some compounds at random.
property: Percent Effect (%)

{"columns": ["compound", "endpoint_value"],
 "data": [
  ["CCC(=O)NC1CCCN(Cc2ccc(NC(C)=O)cc2)C1 (configuration not stated)", 8.052],
  ["CN(Cc1noc(C2CC2)n1)C1CCN(Cc2cccc(F)c2F)C1 (configuration not stated)", 67.09],
  ["CC(C)Cn1cc(NC(=O)N2CCCC2)cn1", -15.58],
  ["Cc1csc(CNCc2c(C)nn(C)c2N2CCOCC2)n1", -26.69],
  ["NC(=O)Cn1cc(NC(=O)N2CCCC(O)C2)cn1 (configuration not stated)", -5.248],
  ["Cc1cc(F)ccc1N1CCC(N2C[C@@H](C)[C@@](C)(O)C2)CC1", 24.01],
  ["Cc1cc(C)n(CC2CCCN2CCS(C)(=O)=O)n1 (configuration not stated)", -2.075],
  ["COc1c(CNC2(c3noc(C)n3)CCC2)c(C(C)C)nn1C.Cl", 11.38],
  ["CCn1cc(CN(C)S(=O)(=O)c2ccccc2)cn1", 61.21],
  ["CN(C)c1nc(N)nc(CN2CCCC2c2cccs2)n1 (configuration not stated)", 12.16],
  ["COc1ccc(C(C)N(C)Cc2c(C3CC3)[nH]c3ncccc23)cc1.Cl (configuration not stated)", 65.16],
  ["OC(CNC1CCSCC1)c1cccc(OCc2ccccc2)c1 (configuration not stated)", 40.53],
  ["CCn1cc(CN(C)S(=O)(=O)c2cnn(C)c2)cn1", 10.44],
  ["CCOc1ccc(S(=O)(=O)N(C)Cc2cnn(CC)c2)cc1", 22.15],
  ["CCn1cc(CN(C)S(=O)(=O)c2ccc(C(C)C)cc2)cn1", 71.72],
  ["COc1c(CNC2(c3noc(C)n3)CCC2)c(C)nn1C.Cl", 55.08],
  ["CC(=O)Nc1nc(-c2ccccc2)c[nH]1", -10.01]
]}

// data source = ChEMBL document CHEMBL3988442
